protocol: Inhibition of Multidrug resistance efflux pump in Staphylococcus aureus 272123 assessed as relative fluorescence index using ethidium bromide as substrate at 50 uM by fluorescence based analysis
Let's look at some compounds and their measured RFU.
When you answer, write just the number.

O=C1/C(=C/c2ccccc2Cl)COC/C1=C\c1ccccc1Cl | -0.16
O=C1/C(=C/c2ccccc2F)COC/C1=C\c1ccccc1F | -0.08
COc1cccc(/C=C2\COC/C(=C\c3cccc(OC)c3OC)C2=O)c1OC | 0.44
COc1ccccc1/C=C1\CSC/C(=C\c2ccccc2OC)C1=O | 0.01
COc1ccccc1/C=C1\Cc2ccccc2C1=O | 0.05
COc1ccccc1/C=C1\COC/C(=C\c2ccccc2OC)C1=O | 0.21

In: For the compound shown here, COc1cc(OC)c(OC)cc1/C=C1\CSc2ccccc2C1=O , give the reported RFU.
Out: 0.36

In: I have this compound here, COc1ccc(/C=C2\COC/C(=C\c3ccc(OC)cc3OC)C2=O)c(OC)c1 , and I need its recorded RFU.
Out: -0.19

###

protocol: Inhibition of quorum sensing system in Chromobacterium violaceum CV026 assessed as reduction in pigment production co-cultured with Sphingomonas paucimobilis Ezf 10-17 for 24 to 48 hrs
test_conditions: time 24-48 hrs
Listed here: items and their measured Activity.
Unit mm implied. Number only.

Example compounds with recorded Activity:
COc1ccccc1/C=C1\CCC/C(=C\c2ccccc2OC)C1=O | 0
COc1ccc(/C=C2\COC/C(=C\c3ccc(OC)c(OC)c3)C2=O)cc1OC | 0
COc1cccc(/C=C2\COC/C(=C\c3cccc(OC)c3OC)C2=O)c1OC | 31
CC(CN1c2ccccc2Sc2ccccc21)N(C)C (configuration not stated) | 41
COc1cc(OC)c(OC)cc1/C=C1\CSc2ccccc2C1=O | 0
O=C1/C(=C/c2ccc(Br)cc2)COC/C1=C\c1ccc(Br)cc1 | 0

Consider the record given below.
In: Dear colleague, I am looking for the recorded Activity of the following compound: COc1ccccc1/C=C1\CCc2ccccc2C1=O
Out: 48

###

protocol: Inhibition of Multidrug resistance efflux pump in Staphylococcus aureus 272123 assessed as relative fluorescence index using ethidium bromide as substrate at 50 uM by fluorescence based analysis
readout_kind: RFU

COc1cc(OC)c(OC)cc1/C=C1\Cc2ccccc2C1=O | -0.34
O=C1/C(=C/c2cccc(F)c2)COC/C1=C\c1cccc(F)c1 | -0.16
O=C1/C(=C/c2ccc(F)cc2)COC/C1=C\c1ccc(F)cc1 | -0.11
COc1ccc(/C=C2\COC/C(=C\c3ccc(OC)c(OC)c3)C2=O)cc1OC | 2.47
COc1cc(/C=C2\COC/C(=C\c3cc(OC)c(OC)c(OC)c3)C2=O)cc(OC)c1OC | 0.02
O=C1/C(=C/c2ccc(Br)cc2)COC/C1=C\c1ccc(Br)cc1 | 0.53
O=C1/C(=C/c2ccc(C(F)(F)F)cc2)COC/C1=C\c1ccc(C(F)(F)F)cc1 | -0.12
COc1ccccc1/C=C1\CCc2ccccc2C1=O | 0.88

In: // RFU lookup, key: COc1cc(/C=C2\COC/C(=C\c3cc(OC)cc(OC)c3)C2=O)cc(OC)c1
Out: 0.25

In: RFU for Cc1cccc(/C=C2\COC/C(=C\c3cccc(C)c3)C2=O)c1 ?
Out: 0.11

In: Which measured RFU value corresponds to COc1cccc(/C=C2\COC/C(=C\c3cccc(OC)c3)C2=O)c1 ?
Out: 0.17

In: Quick check: RFU of COc1ccccc1/C=C1\CC/C(=C\c2ccccc2OC)C1=O ?
Out: -0.39

In: Consider the compound shown here: Cc1ccccc1/C=C1\COC/C(=C\c2ccccc2C)C1=O What is its recorded RFU?
Out: -0.23

In: Item under review: O=C1/C(=C/c2ccc(Cl)cc2Cl)COC/C1=C\c1ccc(Cl)cc1Cl . Reported RFU?
Out: -0.25

###

System: Salmonella typhimurium
protocol: Antibacterial activity against Salmonella enterica serovar typhimurium SL1344 (SE03) assessed as inhibition of bacterial growth by broth microdilution method
Assay type: functional, Salmonella enterica subsp. enterica serovar Typhimurium
# MIC annotations

Below are worked cases with known answers.
COc1ccc(/C=C2\COC/C(=C\c3ccc(OC)c(OC)c3)C2=O)cc1OC | > 64 µg/mL
O=C1/C(=C/c2ccccc2Cl)COC/C1=C\c1ccccc1Cl | > 64 µg/mL
O=C1/C(=C/c2ccc(Cl)cc2Cl)COC/C1=C\c1ccc(Cl)cc1Cl | > 64 µg/mL
O=C1/C(=C/c2cccc(F)c2)COC/C1=C\c1cccc(F)c1 | > 64 µg/mL
COc1cc(/C=C2\COC/C(=C\c3cc(OC)c(OC)c(OC)c3)C2=O)cc(OC)c1OC | > 64 µg/mL
O=C1/C(=C/c2ccccc2Br)COC/C1=C\c1ccccc1Br | > 64 µg/mL

In: Given the compound Cc1ccc(/C=C2\COC/C(=C\c3ccc(C)cc3)C2=O)cc1 , what is its reported MIC?
Out: > 64 µg/mL

In: Need MIC, item COc1cc(OC)c(OC)cc1/C=C1\CSc2ccccc2C1=O
Out: > 64 µg/mL

In: What value of measured MIC is listed for COc1ccccc1/C=C1\Cc2ccccc2C1=O ?
Out: > 64 µg/mL

In: Quick one: MIC for COc1cccc(/C=C2\COC/C(=C\c3cccc(OC)c3OC)C2=O)c1OC ?
Out: > 64 µg/mL

In: If you can, please state the reported MIC value of COc1ccccc1/C=C1\CCC/C(=C\c2ccccc2OC)C1=O .
Out: > 64 µg/mL

###

System: Salmonella enterica subsp. enterica serovar Typhimurium
protocol: Inhibition of Multidrug resistance efflux pump in Salmonella enterica serovar typhimurium SL1344 (SE03) assessed as relative fluorescence index using ethidium bromide as substrate at 50 uM by fluorescence based analysis
Please mark Condition met if the recorded RFU is equal to or greater than 0.09, and Condition not met if it falls below.

Worked examples, 4 compounds total:
Cc1ccc(/C=C2\COC/C(=C\c3ccc(C)cc3)C2=O)cc1 | Condition not met
COc1ccccc1/C=C1\CCc2ccccc2C1=O | Condition met
O=C1/C(=C/c2ccccc2F)COC/C1=C\c1ccccc1F | Condition not met
COc1cc(OC)c(OC)cc1/C=C1\Cc2ccccc2C1=O | Condition met

Alright, here's another compound for you.
In: Say whether O=C1/C(=C/c2ccccc2Cl)COC/C1=C\c1ccccc1Cl shows RFU of 0.09 or more.
Out: Condition not met

###

Tested on: Salmonella enterica subsp. enterica serovar Typhimurium
protocol: Inhibition of Multidrug resistance efflux pump in Salmonella enterica serovar typhimurium SL1344 (SE03) assessed as relative fluorescence index using ethidium bromide as substrate at 50 uM by fluorescence based analysis
Label true when RFU is strictly below 0.04; at or above that, label false.

In: API: query returns whether the compound falls strictly under 0.04 in RFU. Query: COc1ccccc1/C=C1\CCC/C(=C\c2ccccc2OC)C1=O
Out: true

In: Quick check: does O=C1/C(=C/c2ccc(Br)cc2)COC/C1=C\c1ccc(Br)cc1 have RFU under 0.04?
Out: false

In: In the record for O=C1/C(=C/c2ccccc2Br)COC/C1=C\c1ccccc1Br , is RFU less than 0.04?
Out: true

In: # strict comparison: is reported RFU < 0.04? input = COc1ccccc1/C=C1\Cc2ccccc2C1=O
Out: false

In: Please indicate whether the reported RFU of COc1ccccc1/C=C1\CC/C(=C\c2ccccc2OC)C1=O is strictly below 0.04.
Out: false

In: Determine if COc1cc(/C=C2\COC/C(=C\c3cc(OC)c(OC)c(OC)c3)C2=O)cc(OC)c1OC shows RFU strictly lower than 0.04.
Out: true

In: Given the entry O=C1/C(=C/c2ccc(Cl)cc2Cl)COC/C1=C\c1ccc(Cl)cc1Cl , would its reported RFU be below 0.04?
Out: true

In: In the record for O=C1/C(=C/c2ccc(C(F)(F)F)cc2)COC/C1=C\c1ccc(C(F)(F)F)cc1 , is RFU less than 0.04?
Out: true

In: For COc1ccc(/C=C2\COC/C(=C\c3ccc(OC)cc3OC)C2=O)c(OC)c1 , is the recorded RFU below the cut-off of 0.04?
Out: true

In: Check if RFU falls below 0.04 for Cc1ccccc1/C=C1\COC/C(=C\c2ccccc2C)C1=O .
Out: true

In: I'd appreciate it if you could check whether COc1cc(OC)c(OC)cc1/C=C1\CSc2ccccc2C1=O has RFU smaller than 0.04.
Out: true

In: Please check: RFU for COc1cccc(/C=C2\COC/C(=C\c3cccc(OC)c3OC)C2=O)c1OC , strictly under 0.04 or not?
Out: false

###

System: Enterococcus faecalis
protocol: Antimicrobial adjuvant activity against Enterococcus faecalis B3/101 assessed as potentiation of vancomycin-induced antibacterial activity by measuring fold reduction in vancomycin MIC at 64 ug/ml by broth microdilution method
Assay type: functional
test_conditions: dose 64 µg/ml
# reported fold change (FC); entries follow
Write no unit; give the number alone.

Example entries begin here.
Cc1ccccc1/C=C1\COC/C(=C\c2ccccc2C)C1=O | 2
COc1cc(OC)c(OC)cc1/C=C1\CSc2ccccc2C1=O | 2
COc1cc(OC)c(OC)cc1/C=C1\Cc2ccccc2C1=O | 2
Cc1cccc(/C=C2\COC/C(=C\c3cccc(C)c3)C2=O)c1 | 2
COc1cccc(/C=C2\COC/C(=C\c3cccc(OC)c3OC)C2=O)c1OC | 32

In: Request the reported fold change (FC) associated with O=C1/C(=C/c2cccc(F)c2)COC/C1=C\c1cccc(F)c1
Out: 2

In: Report fold change (FC) for COc1cc(/C=C2\COC/C(=C\c3cc(OC)cc(OC)c3)C2=O)cc(OC)c1 please.
Out: 4

In: Which fold change (FC) reading was recorded for the molecule COc1cccc(/C=C2\COC/C(=C\c3cccc(OC)c3)C2=O)c1 ?
Out: 4

In: If you can, please state the reported fold change (FC) value of COc1ccccc1/C=C1\CSC/C(=C\c2ccccc2OC)C1=O .
Out: 4

In: Look at this molecule and give its reported fold change (FC). COc1ccccc1/C=C1\CCc2ccccc2C1=O
Out: 2

In: Entry under review: COc1ccccc1/C=C1\Cc2ccccc2C1=O . Reported fold change (FC)?
Out: 2
